I'd be grateful if you could share measured %-inhibition of PKD3 for these entries.
- tested.on: panel of more than 300 wild-type and mutant kinases (313 kinase panel) (Homo sapiens, UniProt O94806)
- procedure.text: Kinase profiling in a biochemical assay panel (mobility shift assays and ELISA), %-inhibition at 1 μM; selectivity entropy
- protocol.conditions: kinase PKD3; 1 μM
Your answer should be a plain number; it is taken to be in %.

[Q] Value lookup for %-inhibition of PKD3; key = `Cc1ccc(C(=O)Nc2ccc(CN3CCN(C)CC3)c(C(F)(F)F)c2)cc1C#Cc1cnc2cccnn12`
[A] 19

[Q] Value lookup for %-inhibition of PKD3; key = COc1cc2nccc(Oc3ccc(NC(=O)C4(C(=O)Nc5ccc(F)cc5)CC4)cc3)c2cc1OC [cabozantinib]
[A] -0.766

[Q] Value lookup for %-inhibition of PKD3; key = `CCCS(=O)(=O)Nc1ccc(F)c(C(=O)c2c[nH]c3ncc(-c4ccc(Cl)cc4)cc23)c1F`
[A] -4.7

[Q] Value lookup for %-inhibition of PKD3; key = `CNC(=O)c1cc(Oc2ccc(NC(=O)Nc3ccc(Cl)c(C(F)(F)F)c3)c(F)c2)ccn1`
[A] -18
